Parameter MIC: see the listing below.
Tested on: Candida albicans
Experiment: In vitro Minimum inhibitory concentration (MIC) for antifungal activity against Candida albicans 2402E
Type: functional

| compound | display.unit | comparison.sign | MIC |
| --- | --- | --- | --- |
| CO[C@H]1[C@@H](OC(=O)OCc2ccccc2)[C@H](OC(=O)OCc2ccccc2)[C@H](OCC23C[C@@H]4[C@H](C)CC[C@H]4C4(C=O)CC2C=C(C(C)C)C34C(=O)O)O[C@@H]1C (some centres undefined) | µg/mL | > | 62 |
| CCCCCCOC1[C@H](O)[C@H](OCC23C[C@@H]4[C@H](C)CC[C@H]4C4(C=O)CC2C=C(C(C)C)C34C(=O)O)O[C@H](C)[C@H]1OC (single isomer, unassigned) | µg/mL | = | 2 |
| CCCCCC(=O)O[C@H]1[C@H](OC(=O)CCCCC)[C@H](OCC23C[C@@H]4[C@H](C)CC[C@H]4C4(C=O)CC2C=C(C(C)C)C34C(=O)O)O[C@H](C)[C@H]1OC (some centres undefined) | µg/mL | = | 8 |
| CCCCCC(=O)O[C@@H]1[C@H](OCC23C[C@@H]4[C@H](C)CC[C@H]4C4(C=O)CC2C=C(C(C)C)C34C(=O)O)O[C@H](C)C(OC)[C@H]1O (single isomer, unassigned) | µg/mL | = | 31 |
